Recorded values, source PubChem BioAssay (Tox21).

Assay: qHTS assay to identify small molecule HDAC inhibitors - cell viability counter screen (AID 1259365); further: nearly all actives have a fitted effect of over 50% in size
Conditions: HCT-116 viability, CellTiter-Glo ATP luminescence, 2 h; series mostly up to 92.4 µM
The source made the active and inactive calls. The call rests on the fitted dose curve; in most records, active means well fitted cell-killing curve with a large enough effect in the repeat runs; inconclusive means weak or mixed curves, or effect the other way; inactive means flat fitted curve, though single readings scatter.
result_type: outcome

Here are 5 compounds together with their reported answers.
{"molecule": "Cc1c(Cl)c(=O)oc2cc(O)ccc12", "result": "inactive"}
{"molecule": "Cc1cc(F)ccc1-c1cc(N2CC[C@@H](O)[C@H]2CO)ncc1N(C)C(=O)C(C)(C)c1cc(C(F)(F)F)cc(C(F)(F)F)c1", "result": "inactive"}
{"molecule": "Cc1ccc(C=O)cc1", "result": "inactive"}
{"molecule": "O=c1cc[nH]cc1", "result": "inactive"}
{"molecule": "C[C@H]1O[C@@H](O[C@H]2CC[C@@]3(C)[C@H](CC[C@@H]4[C@@H]3C[C@@H](O)[C@]3(C)[C@@H](C5=CC(=O)OC5)CC[C@]43O)C2)C[C@H](O)[C@@H]1O[C@H]1C[C@H](O)[C@H](O[C@H]2C[C@H](O)[C@H](O[C@@H]3O[C@H](CO)[C@@H](O)[C@H](O)[C@H]3O)[C@@H](C)O2)[C@@H](C)O1", "result": "inactive"}

# batch size: 4; output outcome per entry
1. Cc1cc(C)c(O)c(C(C)(C)C)c1
2. C=C1CC[C@H]2O[C@]2(C)CC[C@@H]2[C@@H]1CC2(C)C
3. C/C=C/C(=O)OCC(C)C
4. Cn1c(=O)[nH]c2ncn(C)c2c1=O

Solution:
inactive
inactive
inactive
inactive
